Assay: Murine tumor cell selectivity as zone unit differential between ([…]) murine cell line and (CFU) normal bone marrow in disk diffusion soft agar colony formation assay at 75 ug/disk.
Assay type: functional
endpoint: Selectivity
One number for each entry.

# count of solved cases: 2
{"columns": ["compound", "Selectivity"],
 "data": [
  ["CC[C@H]1C=CCC[C@@]2(C[C@@H]3CC[C@@H]4[C@H](C(=O)OCCCCCCCCCCCCCCCC(=O)O)[C@]5(CCC[C@@H](C)O5)NC(=[N+]34)N2)O1.[Cl-] [CRAMBESCIDIN 657]", 50],
  ["CC[C@H]1C=CCC[C@@]2(C[C@@H]3CC[C@H]4[C@@H](C(=O)OCCCCCCCCCCCCCCCC(=O)N(CCCN)C[C@@H](O)CCN)[C@@]5(CCC[C@@H](C)O5)NC(=[N+]34)N2)O1.Cl.Cl.[Cl-]", 50]
]}

input: Could you share which Selectivity value was measured for CC[C@H]1C=CCC[C@@]2(C[C@@H]3CC[C@@H]4[C@H](C(=O)OCCCCCCCCCCCC(=O)N(CCCN)C[C@@H](O)CCN)[C@]5(CCC[C@@H](C)O5)NC(=[N+]34)N2)O1.Cl.Cl.[Cl-] ?
output: 50
